# assay details: AUC in rat at 10 umol/kg, ip
# Assay type: ADME, organism-based
# assay context: plasma
recorded endpoint: AUC (ng·h/mL)

[[record]]
molecule = "CCCNC(=O)c1c(NC(=O)C23CC4CC(CC2C4)C3)sc2c1CCOC2"
recorded_endpoint = "AUC"
unit_text = "ng·h/mL"
value_measured = 1020


---

# measured on: Cannabinoid receptor 2 (Rattus norvegicus)
# Sequence (Q9QZN9 whole entry): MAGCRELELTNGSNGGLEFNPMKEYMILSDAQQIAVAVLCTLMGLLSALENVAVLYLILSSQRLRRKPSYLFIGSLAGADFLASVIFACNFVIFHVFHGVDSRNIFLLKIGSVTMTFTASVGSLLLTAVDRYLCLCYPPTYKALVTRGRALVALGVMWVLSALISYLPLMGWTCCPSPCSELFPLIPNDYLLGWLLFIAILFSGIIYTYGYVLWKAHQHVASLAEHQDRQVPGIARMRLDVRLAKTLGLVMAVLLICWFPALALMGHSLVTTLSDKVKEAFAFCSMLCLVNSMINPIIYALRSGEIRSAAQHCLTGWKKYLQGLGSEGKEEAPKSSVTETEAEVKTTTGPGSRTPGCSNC
# assay details: Agonist activity at rat recombinant CB2 receptor expressed in HEK293 cells assessed as inhibition of forskolin-induced cAMP production after 20 mins by ELISA
# Format: functional, cell-based
pIC50: −log10 of the molar value.
recorded endpoint: pIC50

[[record]]
molecule = "CCCNC(=O)c1c(NC(=O)C23CC4CC(CC(C4)C2)C3)sc2c1CCOC2"
qualifier_operator = "<"
value_measured = 5.00

[[record]]
molecule = "CCCNC(=O)c1c(NC(=O)C2C(C)(C)C2(C)C)sc2c1CCOC2"
qualifier_operator = "<"
value_measured = 5.00

[[record]]
molecule = "CCCNC(=O)c1c(NC(=O)C23CC4CC(CC2C4)C3)sc2c1CCOC2"
qualifier_operator = "="
value_measured = 8.03

[[record]]
molecule = "O=C(c1c(NC(=O)C23CC4CC(CC2C4)C3)sc2c1CCOC2)N1CC(F)(F)C1"
qualifier_operator = "="
value_measured = 8.02


---

# measured on: Cannabinoid receptor 1 (Homo sapiens)
# Sequence (P21554 whole entry): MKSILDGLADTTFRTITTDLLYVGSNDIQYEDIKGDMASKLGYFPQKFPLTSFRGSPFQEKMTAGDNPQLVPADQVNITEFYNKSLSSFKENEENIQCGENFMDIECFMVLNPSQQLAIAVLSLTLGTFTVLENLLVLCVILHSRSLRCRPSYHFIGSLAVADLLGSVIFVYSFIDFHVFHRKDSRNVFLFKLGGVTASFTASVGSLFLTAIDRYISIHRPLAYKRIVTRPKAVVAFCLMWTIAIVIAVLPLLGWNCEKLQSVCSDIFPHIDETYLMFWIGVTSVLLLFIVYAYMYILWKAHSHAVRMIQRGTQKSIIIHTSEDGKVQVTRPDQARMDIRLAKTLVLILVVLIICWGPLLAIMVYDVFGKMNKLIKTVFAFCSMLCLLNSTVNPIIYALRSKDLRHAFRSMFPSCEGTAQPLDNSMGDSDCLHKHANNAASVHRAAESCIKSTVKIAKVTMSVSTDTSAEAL
# assay details: Displacement of [3H]CP-55940 from human recombinant CB1 receptor expressed in CHO cells after 90 mins
recorded endpoint: Ki (µM)

[[record]]
molecule = "O=C(c1c(NC(=O)C23CC4CC(CC2C4)C3)sc2c1CCOC2)N1CC(F)(F)C1"
recorded_endpoint = "Ki"
qualifier_operator = "="
value_measured = 3.39

[[record]]
molecule = "CCCNC(=O)c1c(NC(=O)C23CC4CC(CC2C4)C3)sc2c1CCOC2"
recorded_endpoint = "Ki"
qualifier_operator = "="
value_measured = 1.55

[[record]]
molecule = "CCCNC(=O)c1c(NC(=O)C23CC4CC(CC2C4)C3)sc2c1CCN(C)C2"
recorded_endpoint = "Ki"
qualifier_operator = ">"
value_measured = 10

[[record]]
molecule = "CCCNC(=O)c1c(NC(=O)C23CC4CC(CC2C4)C3)sc2c1CCCC2"
recorded_endpoint = "Ki"
qualifier_operator = "="
value_measured = 1.91

[[record]]
molecule = "CCNC(=O)c1c(NC(=O)C23CC4CC(CC2C4)C3)sc2c1CCOC2"
recorded_endpoint = "Ki"
qualifier_operator = ">"
value_measured = 10


---

# measured on: Cannabinoid receptor 1 (Rattus norvegicus)
# Sequence (P20272 whole entry): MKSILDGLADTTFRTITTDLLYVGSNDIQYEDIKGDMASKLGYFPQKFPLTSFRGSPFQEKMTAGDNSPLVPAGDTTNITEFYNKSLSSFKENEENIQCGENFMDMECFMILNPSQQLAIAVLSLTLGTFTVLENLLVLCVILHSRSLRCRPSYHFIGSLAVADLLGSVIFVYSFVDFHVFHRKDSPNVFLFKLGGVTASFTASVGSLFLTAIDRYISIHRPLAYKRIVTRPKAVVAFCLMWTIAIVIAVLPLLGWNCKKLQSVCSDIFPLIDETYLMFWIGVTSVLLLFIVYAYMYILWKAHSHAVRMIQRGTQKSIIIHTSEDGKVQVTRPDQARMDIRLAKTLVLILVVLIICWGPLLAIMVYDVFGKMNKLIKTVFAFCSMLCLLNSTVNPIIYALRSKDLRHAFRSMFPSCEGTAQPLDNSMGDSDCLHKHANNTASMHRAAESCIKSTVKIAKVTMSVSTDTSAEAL
# assay details: Displacement of [3H]CP-55940 from rat recombinant CB1 receptor expressed in CHO cells after 90 mins
pKi: −log10 of the molar value.
Reported pKi is given for each of the following compounds.
recorded endpoint: pKi

[[record]]
molecule = "O=C(c1c(NC(=O)C23CC4CC(CC2C4)C3)sc2c1CCOC2)N1CCOCC1"
measured_on = "Cannabinoid receptor 1 (Rattus norvegicus)"
recorded_endpoint = "pKi"
qualifier_operator = "<"
value_measured = 5.00

[[record]]
molecule = "O=C(c1c(NC(=O)C23CC4CC(CC2C4)C3)sc2c1CCOC2)N1CC(F)(F)C1"
measured_on = "Cannabinoid receptor 1 (Rattus norvegicus)"
recorded_endpoint = "pKi"
qualifier_operator = "="
value_measured = 7.18

[[record]]
molecule = "CCCNC(=O)c1c(NC(=O)C2C(C)(C)C2(C)C)sc2c1CCOC2"
measured_on = "Cannabinoid receptor 1 (Rattus norvegicus)"
recorded_endpoint = "pKi"
qualifier_operator = "="
value_measured = 6.72

[[record]]
molecule = "CCCNC(=O)c1c(NC(=O)C23CC4CC(CC2C4)C3)sc2c1CCCC2"
measured_on = "Cannabinoid receptor 1 (Rattus norvegicus)"
recorded_endpoint = "pKi"
qualifier_operator = "="
value_measured = 7.33

[[record]]
molecule = "CCCNC(=O)c1c(NC(=O)C23CC4CC(CC(C4)C2)C3)sc2c1CCOC2"
measured_on = "Cannabinoid receptor 1 (Rattus norvegicus)"
recorded_endpoint = "pKi"
qualifier_operator = "="
value_measured = 6.28

[[record]]
molecule = "CCCNC(=O)c1c(NC(=O)C23CC4CC(CC2C4)C3)sc2c1CCOC2"
measured_on = "Cannabinoid receptor 1 (Rattus norvegicus)"
recorded_endpoint = "pKi"
qualifier_operator = "="
value_measured = 6.52


---

# assay details: Half life in rat at 3 umol/kg, iv
# Format: ADME, organism-based
# assay context: in vivo
recorded endpoint: half-life (h)

[[record]]
molecule = "CCCNC(=O)c1c(NC(=O)C23CC4CC(CC2C4)C3)sc2c1CCOC2"
unit_text = "h"
value_measured = 1.5


---

# measured on: Cannabinoid receptor 2 (Homo sapiens)
# Sequence (P34972 whole entry): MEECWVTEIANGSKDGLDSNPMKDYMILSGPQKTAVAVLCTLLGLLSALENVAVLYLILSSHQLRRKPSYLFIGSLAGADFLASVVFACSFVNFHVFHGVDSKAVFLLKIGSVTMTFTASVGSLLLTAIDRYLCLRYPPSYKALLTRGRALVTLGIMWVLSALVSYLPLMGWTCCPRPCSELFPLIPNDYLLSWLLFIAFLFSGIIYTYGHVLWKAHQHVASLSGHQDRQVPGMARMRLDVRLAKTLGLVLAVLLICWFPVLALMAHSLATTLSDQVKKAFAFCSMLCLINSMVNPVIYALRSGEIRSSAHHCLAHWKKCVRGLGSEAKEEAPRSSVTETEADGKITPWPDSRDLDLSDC
# assay details: Agonist activity at human recombinant CB2 receptor expressed in HEK293 cells assessed as inhibition of forskolin-induced cAMP production after 20 mins by ELISA
# Format: functional, cell-based
pIC50: −log10 of the molar value.
Reported pIC50 is given for each of the following compounds.
recorded endpoint: pIC50

[[record]]
molecule = "O=C(c1c(NC(=O)C23CC4CC(CC2C4)C3)sc2c1CCOC2)N1CC(F)(F)C1"
value_measured = 9.70

[[record]]
molecule = "CCCNC(=O)c1c(NC(=O)C23CC4CC(CC(C4)C2)C3)sc2c1CCOC2"
value_measured = 7.95

[[record]]
molecule = "CCCNC(=O)c1c(NC(=O)C23CC4CC(CC2C4)C3)sc2c1CCOC2"
value_measured = 8.71

[[record]]
molecule = "CCCNC(=O)c1c(NC(=O)C23CC4CC(CC2C4)C3)sc2c1CCCC2"
value_measured = 8.01

[[record]]
molecule = "CCCNC(=O)c1c(NC(=O)C2C(C)(C)C2(C)C)sc2c1CCOC2"
value_measured = 9.00


---

Reported IC50 is given for each of the following compounds.
# measured on: UniProtKB P20272
# assay details: Agonist activity at rat recombinant CB1 receptor expressed in HEK293 cells assessed as inhibition of forskolin-induced cAMP production after 20 mins by ELISA
recorded endpoint: IC50 (nM)

[[record]]
molecule = "O=C(c1c(NC(=O)C23CC4CC(CC2C4)C3)sc2c1CCOC2)N1CC(F)(F)C1"
recorded_endpoint = "IC50"
value_measured = 229

[[record]]
molecule = "CCCNC(=O)c1c(NC(=O)C23CC4CC(CC2C4)C3)sc2c1CCOC2"
recorded_endpoint = "IC50"
value_measured = 1410


---

# assay details: Cmax in rat at 10 umol/kg, po
# Type: ADME, organism-based
# Set-up: dose 10 umol/kg, route oral
# assay context: in vivo
recorded endpoint: Cmax (ng/mL)

[[record]]
molecule = "CCCNC(=O)c1c(NC(=O)C23CC4CC(CC2C4)C3)sc2c1CCOC2"
unit_text = "ng/mL"
value_measured = 39


---

Reported fraction unbound is given for each of the following molecules.
# assay details: Plasma protein binding in rat
# Format: ADME, cell-free
# assay context: read-out: PPB (converted)
recorded endpoint: fraction unbound

[[record]]
molecule = "CCCNC(=O)c1c(NC(=O)C23CC4CC(CC2C4)C3)sc2c1CCNC2"
value_measured = "< 0.01"

[[record]]
molecule = "CCCNC(=O)c1c(NC(=O)C23CC4CC(CC2C4)C3)sc2c1CCOC2"
value_measured = 0.03

[[record]]
molecule = "CCCNC(=O)c1c(NC(=O)C23CC4CC(CC(C4)C2)C3)sc2c1CCOC2"
value_measured = "< 0.01"


---

# assay details: Tmax in rat at 10 umol/kg, ip
# Format: ADME, organism-based
# assay context: in vivo
recorded endpoint: Tmax (min)

[[record]]
molecule = "CCCNC(=O)c1c(NC(=O)C23CC4CC(CC2C4)C3)sc2c1CCOC2"
value_measured = 36


---

# measured on: Cannabinoid receptor 2 (Homo sapiens)
# assay details: Displacement of [3H]CP-55940 from human recombinant CB2 receptor expressed in HEK293 cells after 90 mins
pKi: −log10 of the molar value.
recorded endpoint: pKi

[[record]]
compound = "O=C(c1c(NC(=O)C23CC4CC(CC2C4)C3)sc2c1CCOC2)N1CCOCC1"
qualifier_operator = "="
value_measured = 7.04

[[record]]
compound = "CCCNC(=O)c1c(NC(=O)C23CC4CC(CC2C4)C3)sc2c1CCN(C)C2"
qualifier_operator = "="
value_measured = 7.04

[[record]]
compound = "CCCNC(=O)c1c(NC(=O)C23CC4CC(CC2C4)C3)sc2c1CCNC2"
qualifier_operator = "<"
value_measured = 6.00

[[record]]
compound = "CCCNC(=O)c1c(NC(=O)C23CC4CC(CC(C4)O2)C3)sc2c1CCOC2"
qualifier_operator = "="
value_measured = 6.59

[[record]]
compound = "CCNC(=O)c1c(NC(=O)C23CC4CC(CC2C4)C3)sc2c1CCOC2"
qualifier_operator = "="
value_measured = 6.67

[[record]]
compound = "COCCNC(=O)c1c(NC(=O)C23CC4CC(CC2C4)C3)sc2c1CCOC2"
qualifier_operator = "="
value_measured = 6.92

[[record]]
compound = "CCCNC(=O)c1c(NC(=O)C2CC3CCC2C3)sc2c1CCOC2 (stereo not drawn)"
qualifier_operator = "="
value_measured = 6.98

[[record]]
compound = "CCCNC(=O)c1c(NC(=O)C23CC4CC(CC2C4)C3)sc2c1CCCC2"
qualifier_operator = "="
value_measured = 8.71

[[record]]
compound = "CCCNC(=O)c1c(NC(=O)C2C(C)(C)C2(C)C)sc2c1CCOC2"
qualifier_operator = "="
value_measured = 7.04

[[record]]
compound = "CCCNC(=O)c1c(NC(=O)c2c(F)cccc2C(F)(F)F)sc2c1CCOC2"
qualifier_operator = "="
value_measured = 6.98

[[record]]
compound = "CCCNC(=O)c1c(NC(=O)C23CC4CC(CC(C4)C2)C3)sc2c1CCOC2"
qualifier_operator = "="
value_measured = 7.47

[[record]]
compound = "CCCNC(=O)c1c(NC(=O)C23CC4CC(CC2C4)C3)sc2c1CCOC2"
qualifier_operator = "="
value_measured = 7.68

[[record]]
compound = "O=C(c1c(NC(=O)C23CC4CC(CC2C4)C3)sc2c1CCOC2)N1CC(F)(F)C1"
qualifier_operator = "="
value_measured = 8.25

